assay: label from the status in PepcDB records
measuredParameter: protein production

These solved cases illustrate the format of a correct answer.
{"columns": ["sequenceEntry", "observedResult"],
 "data": [
  ["MAEERRIDWSSLWKKEDWWAFWLGMLLFVLCLATAYGADIMGWVVKSSTWVDVSKAMGPTSKNFAYLGPIGSFVVSWLVLLILTTIGAVAMGWKGGKFAAAFTVIFILTWICWVIGHNAYIAATDPAKAGVPWSLRMTGEAGYIFALILGLIIGNFFKGFANWLKEAAKPEWFIKTAIVLLGAVVGIKAPTIPPEILYNYLFRGLCAIVEAYLIYWALVYWVARRYFGFSREWAAPLASGISICGVSAAIATGGAIRARPVVPVMVASLVIVFAVVELLFLPFLAATFLQHQPLVAGAWMGLAVKTDGAATASVKWLKL", "failed"],
  ["MPLKKLIEIGSADFSVSTTACVLQLSHREVPVRGKQSKVISGVLADETARLPFTAWVELPGIDIGSIIRIEGAQIRMFRGMPSINFLEHHHHHH", "failed"],
  ["MTEPANNHPSPPPQNWLFKWWNSLNAITRLLVLVLGAPLMVLNARALSSIFGYFESLFVISLIASVIAFLLNYPVAWLEKQGAKRFVAASFVFLTALIIFTALGVTLIPLALSQAQQLVARLPDWLDSGQKQLVLLDQKAEILGWPVNFDGLIPQINSRLAAELQNLAGSTLNLALSLTVFTVVRLLDVLLTIILTFYLLLHTDDVWQSIIGWLPERFQKPFSDTLRRSFQNYFLGQLVSATCMALGLISGFLLLKVPFGLLFGLTVGVMALIPFGGSVGIVLVTFLVALRDIGMALQLLAVALVIQQIVENGIAPRVLGSVTGLNPFWVLISLLTGARIGGLLGVIVAVPSAVMIKEALGAIRSMKPLVPAPDHNQDPLYFKNQEEVQPLPPRP", "failed"],
  ["MRISKTTKIGALTLIALFLLYFGLNYLKGFNVFKRANVYYAAFPEVKNVNIASPVLVNGYKVGVVKSLSFDYKNGRSIVVGIDLESEYRMPKGSHLAIHQTALSGAELRIIQGDPRDGYLNPGDTIRSETPDDIMSVTSNKIVPSVVNMMPKVDSVIVGLANMVNNPNLAVMMENMAATAQRLNRLTASLDKSIGTQLPAVMANTRTITDNVAMLSEELKQLKLEALMAELQATSENLRSFSDQIRNSNGSLGMLLNDKSLYMRLDSMASSADALLRDLKANPKRYVHFSVF", "failed"],
  ["MIELQLELFPGHIAGLLLVELSKPVEDFASIFIQGTWECALLDAGVVFHKSQLLTAVNVAFQRFEAGRLKTHSLHNEVMLALSAKLSIRDGLAAVRFSWEKTRCLVVAVDPPASFPQAAESTSNALAAKVRHFPEGANELFNELLVHVDKPSIQNLYGTDIDPHWICTKIATVEYVRQLR", "failed"]
]}

# batch size: 7; output protein production per entry
1. MSLSQRTLLLLSQDNAHYERLLKAAHLPHLRILRADNQSDAEKLIGEAHILMAEPARAKPLLAKANKLSWFQSTYAGVDVLLDARCRRDYQLTNVRGIFGPLMSEYVFGHLLSLMRQLPLYREQQKQRLWQSHPYQGLKGRTLLILGTGSIGQHIAHTGKHFGMKVLGVSRSGRERAGFDQVYQLPALNKMLAQADVIVSVLPATRETHHLFTASRFEHCKPGAILFNVGRGNAINEGDLLTALRTGKLGMAVLDVFEQEPLPADSPLWGQPNLIITPHNSAYSFPDDVAQIFVRNYIRFIDGQPLDGKIDFDKGYEGHHHHHH
2. MKNFNDEEHNSQLTDEVLPEPEDARVIANILKAVGVESFDTRVVAQLVEFVYKYIGEVLELSKTFAQYAEREDIRQDDVKLAISSLLSKSFTQPPSRDVLLQLCRERNAVPLPVVDTYVGIQLPPKEFQLTTRNYQLKRKTTTESVASQELSEATGNISIGESSLQPNEEESNTMNT
3. MTQQHPHLLEPELGEFLTALKNTPSRLTARTAAWLCIWTASRPGMVRLAEWKEFDLDKATWTTPAAKMKMRRDFVCPLPHQAIAALKELHCLTGRSRWLFPGVGAKNPTISENTINKVFATIGYKGRLVGHGTRHTASTLLREHGWPKEHVEAQLAHKEEGLEHHHHHH
4. MDSSSISSLLEDLKHSDALVREQATKKLWRIWFQQKGMYGLEKIDQSQKLLDAGEITEAEVMLTQLIQEQPDFAEAWNRRAFLYYSMGEYQKSLADCQMVIQINPVHFGALHGIGLCYAALGKYAKAIKAFKRALEIQPYSLVNQKLILECTFRLSLEHHHHHH
5. MLKHLDRSKKGKVARSFLQAISKDEAVAPPLRVVQIEGLAVLKIIKHCKEFSPTLVTGQLLGLDVGSVLEVTNCFPFPVRDDDEEIEADGANYQLEMMRCLREVNVDNNTVGWYQSTVLGSYQTVELIETFMNYQENIKRCVCIIYDPSKADLGVLALKALKLSDSFMELYRGGNFTGEKLREKNFSWMDIFEEIPIKVSNSALVSAFMTELETDTPVSQGDYDRLHSSTTPFLENNMEFLIKCMDDLSMEQQKFQYYYRNLSRQQAQQQAWLQKRRTENMARKSAGEEPLPEEDPSNPIFKAIPEPSRLESFLITNQVSNFCGQINGVAGQNFSRLYLTKALHDN
6. MGLLFFHNDVTDRFNPFIHQQDVYVQIDRDGRHLSPGGTEYTLDGYNASGKKEEVTFFAGKELRKNAYLKVKAKGKYVETWEEVKFEDMPDSVQSKLKLEHHHHHH
7. MISLQFFITAFVVVLAPGTGVIYTLAIGLGRGRSAAAWAALGCTLGILPHLAAAILGLAAILHSSALLFQLVKAAGVAYLLYLAWQALRSDGALAIRSEHSHQPGWRIAWRGALINILNPKLSVFFLALLPPFLSGNPASATAEMSLLGLVFMAMTFAVFLLYGAFASAARTYLMQSERALRWMGRGFALVFAGLAARLAMERA

Reply:
1: not failed; 2: failed; 3: failed; 4: failed; 5: failed; 6: not failed; 7: failed

---

test: label from the status in PepcDB records
measuredParameter: protein production

{"columns": ["sequenceEntry", "observedResult"],
 "data": [
  ["MIQQLLVTFPPMLFGAQALLTLLLIKGDICPGQRGRLHKMLPAIGVLWLAVASLRIEAFMVVFAIFYFYSQVQTKKTREKGPLWALHLANGLAFAYVSIQVFEQPNWPASAAMAVMIFFLGASFSQLLLTIARSRLQAFHRILPVTGIVSGMLLVLATLFSSYQLDEATLASATQPILISLALLISTIVVWCWHIFTHKAPEKVQLSIALLLALASMTSLQGLFALAV", "failed"],
  ["MPFLLTLLAFLRVLRRLLKDEKFRALLYITAFTLAIGTFFYHSVEGWDWLDSLYFSVITLTTVGYGDFTPKTNIGKFFTIIYIFIGLGILVAFVTPIGEYIVDRRLDRIQEREQKKEIPENEFDFSGVIGKLRGKK", "failed"],
  ["MSARSLRQEALNLPNAITATRIALIPVFLWFTFYESRVDSFIAAVLYAVTGATDFLDGWVARRKNLVTVIGKFLDPLADKLIVMAALVMLVHLGRVAAWVCIVVLAREFIVTGLRTIAMSEGIVIAAGQEGKHKTAFQVAGITFLLLHYTYPIDAIFFSFDLDANRVGTWLVYISLFFSVWSAVSYFANFIRAVYRREGEAQAAEDVRPNRRTSRG", "failed"]
]}

---

assay: label from the status in PepcDB records
measuredParameter: protein production

Please review the entries below; each comes with its answer.
{"columns": ["sequenceEntry", "measuredParameter", "observedResult"],
 "data": [
  ["MSTSTSCPIPGGRDQLPDCYSTTPGGTLYATTPGGTRIIYDRKFLLECKNSPIARTPPCCLPQIPGVTTPPTAPLSKLEELKEQETEEEIPDDAQFEMDI", "protein production", "failed"],
  ["MSLAEVGSKSVLFVCLGNICRSPIAEAVFRKLVTDEKVSDNWAIDSSAVSDWNVGRPPDPRAVSCLRNHGISTAHKARQITKEDFATFDYILCMDESNLRDLNRKSNQVKNCKAKIELLGSYDPQKQLIIEDPYYGNDSDFEVVYQQCLRCCKAFLEKTYEGHHHHHH", "protein production", "not failed"],
  ["NGADVQVSNIDYRLSRKELQQLLQEAFARHGKVKSVELSPHTDYQLKAVVQMENLQDAIGAVNSLHRYKIGSKKILVSLATGA", "protein production", "not failed"],
  ["MEKPGGFWIPKKSNKESSWEELAFAEDDAAGSLWPPRSYTCSFCRREFKSAQALGGHMNVHRRDRARLKQADDQYLFPKSSSSPEYPSHKDSDNIHETSCYTLVFNTKPNYFKTQHSCVIDLSSSSSLPYLTPSRVSSGLPGKQHTSSSPPSFVVEPSKNSKYIPSSSPWSCPSTVVEQKSCDLYEIPAMEGEKKRKTESDVPKIGHKAKLSLGNTTDLSVSMNLVIHQSFPITAHGSDEEIGRVDIRKRRRRHESPSQQSIFISSLSCKSDIITRNEESKHKGDRFEDLDLELRLGTDPPKGI", "protein production", "failed"],
  ["MGFEVRRRLSVADTVTLFNAVVGFVAGAIAFTDPHLAARLILLAVIADAIDGIVARNGDSSAVGPLLDSVTDVVSFGATPSLFLYVLLTDAYGGIESAHPAVFVGLALLASAYVVCSIVRTAFYSTYFDSPDERPGMPNTLGSIIIATAYLSGITNPLVLSVGALGLSLAMIAPFDYPKPGPKHAVPMGVVQAVAVVAPAALFRAGPRAMLAIALLFFALGPWFYPGE", "protein production", "failed"]
]}

Provide reported protein production for each item, in the same order as listed.
1. MIYKITLTDISLAQAFISIPQDVIALDLSNNLLGSKSCVDLLVNIADCIPAGVTSLDLSSNGLRLTQVSLVTPKHVTSLNLCFNPLHEISIDGLEWLKDSLAHIQIIYLSYDMVNNMSREQRQAFRAVIPNIQTIILVDKNGKEIGPSHTAKIANLISELGGGNPEVPSLLNQCTFFVKTQGINIDKAYIPEELKKRIHDCNPL
2. SRGMTPGSRLIDYQLIDSTEELAAILGCGHPSSIHKITRVRLANDIPMAIESSHIPFELAGELNESHFQSSIYDHIERYNSIPISRAKQELEPSAATTEEANILGIQKGAPVLLIKRTTYLQNGTAFEHAKSVYRGDRYTFVHYMDRLS
3. MKNKGLIATLILLTILVVGELFYNKSEKRLNLSEKQVVKIGILQYVTHDALDAIEKGVEDGLAQEGYKGKKVKLTVLNAEADQSKIQAMSKQLVNHHNDILIGIATPSAQGLAASTKDTPIIMGAVSDPLGAKLVTNMKKPTTNVTGLSNVVPTKQTVQLIKDITPNIKRIGILYASSEDNSVSQVTEFTKYAQKAGLEVLKYSVPSTNEIKTSMSVMTKKVDAVFVPQDNTIASAFRTVIVAANQANIPVYSSVDTMVEQGSIASVAQSQYGLGLETAKQAIKVLRGKPVKDVPVKVIDTGKPSLNLKAAKHLGIKIPKKIMKQAEITVKVDD

Reply:
1: failed; 2: failed; 3: failed

Look at each sequence and report its protein production.
1. MMTKFWNDRYKSDEYFYGEEPNTFIKEQAFRLANHNKVIAFAEGEGRNAVFLARQGNEVTAIDYSEDGLEKTKKLAEKHNVNVHTKKVDLLADSLPENEYDAAIMVFGHFHDDYKKMILGKMIQTIKPGGLIMFEVYSKKQINYGTGGPKDVDMLYDPIDILTWCEEHKVIHFFNGEQERIEGKGHTGLADVIQVVIRK
2. SDESDLPSAMPAVPAFGVEERNMVSGVLTLAERSIRSIMTPRTDVSWVNIDDDAATIRQQLTAAPHSFFPVCRGSLDEVVGIGRAKDLVADLITEGRVRRNRLRDPIIVHESIGILRLMDTLKRSRGQLVLVADEFGAIEGLVTPIDVFEAIAGEFPDEDELPDIVA
3. MEPCELSANTVIAHPRALTDKMTLIRDAGPSKFQVFPTPISEQGDAYYDAKRQALYDHYHPLEISPVIPIDEKTKLMEEWWGKTHELLIEGGLTYDAIKKSVANSSIAFREGVSELFEFLEKKEIPVLIFSAGLADVIEEVTLKSISLLELLSYFCCLYNEYAFVAYSHSYQVLRQNLDRTFKNVKIVSNRMVFNDDGQLVSFKGKLIHVLNKNEHALDMAAPLHDRLGVDIGEEDEENVNMKERRNVLLMGDHLGDLRMSDGLDYETRISIGFL
4. MNLLLIVVFGAILEIAVWIGIAQFISGWYVFFWFIIAFFIGLSMLRSSTSSIMPQLQQMQMSGQMGNDPAVTKKLAVAMAGFLLMLPGVVSDILALLILIPGVQTLFRNALMKTLAKRQQAMMNKMMGGMMGGDVGGNAGQNPFEDLMRQMQNMQNQQGASPYNDSNVIDGEAREVKPDQKQIEHKDK
5. MAESLITKKAIAGGLMELCQHKRFEKISIADITNICGLNRQTFYYHFTDKYDLLTWTYENDFFHCLADGITLENWDKHVLKMLESIKENADFYKNTVSADASILSFCFSKLTNSLFMDLFEKIDTNGAVNEADRVFYAEFFSYGCSGVLIKWITRGFKEAPETIANQLFRLAKDTEFLANSMYRENLEHHHHHH
6. MTLLRDHDLARAFDHASHTYDGLTALNPGYRTGLLRSARRLALPADGAGLHLLDLGCGTGASTRALLRAAPRARITAVDASAGMLRRALVKPWPARVRFLHLTAEEFATTREDEGPFDAVFAAYLFRNVTDPDAVLRAVRQLLRPGGRFAAHEYSLSGSPGHRALWSAVCRGVVIPAGTLTGDRTLYRHLRRSVVAFDTAPEFAARLTRAGLTSVRVAPVAGWQTGIVHTFLARNGGPTTTEERVL

Reply:
failed
failed
failed
failed
not failed
failed
